# test: in vivo
# conditionInfo: male, Beagle, dog, po, 0.5 mg/kg, AUC0-96
readoutName: AUC(0-t) (ng·h/mL)
Please give a number only; it is taken to be in ng·h/mL.

Tell us which AUC(0-t) value is on record for COc1ccc(-c2c(-c3ccc(C#N)c(F)c3)nc(N3CCC(N)CC3)n(C)c2=O)cc1F
762

* * *

# systemUnderTest: P-gp (MDR1) (Homo sapiens (Human))
# Sequence (P08183 whole entry): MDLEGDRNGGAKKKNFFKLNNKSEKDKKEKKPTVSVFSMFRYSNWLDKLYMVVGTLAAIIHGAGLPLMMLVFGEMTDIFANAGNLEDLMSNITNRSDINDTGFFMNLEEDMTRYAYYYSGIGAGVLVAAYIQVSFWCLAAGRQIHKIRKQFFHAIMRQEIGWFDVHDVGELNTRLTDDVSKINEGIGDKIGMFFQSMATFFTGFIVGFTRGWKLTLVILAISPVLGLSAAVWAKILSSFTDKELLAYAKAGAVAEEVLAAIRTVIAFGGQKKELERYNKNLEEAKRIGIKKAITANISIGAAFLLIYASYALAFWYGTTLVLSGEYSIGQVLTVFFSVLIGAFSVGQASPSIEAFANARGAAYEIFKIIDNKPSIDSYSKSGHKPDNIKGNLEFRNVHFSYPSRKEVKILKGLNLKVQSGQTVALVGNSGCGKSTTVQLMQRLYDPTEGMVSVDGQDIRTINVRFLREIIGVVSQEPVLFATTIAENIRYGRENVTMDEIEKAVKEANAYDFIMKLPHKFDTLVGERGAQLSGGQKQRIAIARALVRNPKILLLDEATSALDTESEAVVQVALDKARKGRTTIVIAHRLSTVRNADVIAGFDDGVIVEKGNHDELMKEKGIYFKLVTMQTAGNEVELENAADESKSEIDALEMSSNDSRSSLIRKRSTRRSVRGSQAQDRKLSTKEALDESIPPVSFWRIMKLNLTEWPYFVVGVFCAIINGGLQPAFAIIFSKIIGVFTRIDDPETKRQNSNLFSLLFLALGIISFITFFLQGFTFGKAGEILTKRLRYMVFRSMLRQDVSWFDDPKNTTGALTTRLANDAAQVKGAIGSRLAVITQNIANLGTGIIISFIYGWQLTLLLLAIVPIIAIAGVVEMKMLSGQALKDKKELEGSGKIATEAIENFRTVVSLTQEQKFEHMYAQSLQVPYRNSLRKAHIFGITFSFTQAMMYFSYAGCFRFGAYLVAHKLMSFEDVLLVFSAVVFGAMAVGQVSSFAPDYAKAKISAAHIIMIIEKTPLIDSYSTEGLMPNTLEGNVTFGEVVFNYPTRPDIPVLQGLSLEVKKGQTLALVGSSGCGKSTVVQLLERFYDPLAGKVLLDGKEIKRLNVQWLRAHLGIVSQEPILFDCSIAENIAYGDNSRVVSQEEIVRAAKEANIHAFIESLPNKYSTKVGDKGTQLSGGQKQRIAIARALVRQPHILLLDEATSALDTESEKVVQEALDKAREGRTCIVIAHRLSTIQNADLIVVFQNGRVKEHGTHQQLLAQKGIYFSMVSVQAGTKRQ
# test: Permeability in MDR1-MDCK cells
# Assay type: in vitro ADME
readoutName: Papp A→B (×10⁻⁶ cm/s)
Please give a number only; it is taken to be in ×10⁻⁶ cm/s.

Tell us which Papp A→B value is on record for COc1ccc(-c2c(-c3ccc(C#N)c(F)c3)nc(N3CCC(N)CC3)n(C)c2=O)cc1F
0.5

* * *

# test: Pharmacokinetics after IV and oral dose, rats
# Assay type: in vivo, Sprague Dawley rats
# conditionInfo: Sprague Dawley, plasma; rat, female, single oral dose 5 mg base/kg
readoutName: Tmax (h)
Please give a number only; it is taken to be in h.

Tell us which Tmax value is on record for COc1ccc(-c2c(-c3ccc(C#N)c(F)c3)nc(N3CCC(N)CC3)n(C)c2=O)cc1F
2

* * *

# test: Pharmacokinetics after IV and oral dose, dogs
# Format: in vivo, Beagle dogs
# conditionInfo: Beagle, plasma; dog, male, single oral dose 3 mg base/kg
readoutName: Cmax (ng/mL)
Please give a number only; it is taken to be in ng/mL.

Tell us which Cmax value is on record for COc1ccc(-c2c(-c3ccc(C#N)c(F)c3)nc(N3CCC(N)CC3)n(C)c2=O)cc1F
298

* * *

# test: Pharmacokinetics after IV and oral dose, dogs
# Assay type: in vivo, Beagle dogs
# conditionInfo: Beagle, plasma; dog, male, single oral dose 3 mg base/kg; read-out: t1/2, z (converted)
readoutName: half-life (h)
Please give a number only; it is taken to be in h.

Tell us which half-life value is on record for COc1ccc(-c2c(-c3ccc(C#N)c(F)c3)nc(N3CCC(N)CC3)n(C)c2=O)cc1F [Compound A]
19.4

* * *

# test: Pharmacokinetics after IV and oral dose, rats
# Type: in vivo, Sprague Dawley rats
# conditionInfo: Sprague Dawley, plasma; rat, female, single oral dose 5 mg base/kg
readoutName: Cmax (ng/mL)
Please give a number only; it is taken to be in ng/mL.

Tell us which Cmax value is on record for COc1ccc(-c2c(-c3ccc(C#N)c(F)c3)nc(N3CCC(N)CC3)n(C)c2=O)cc1F [Compound A]
47

* * *

# test: Pharmacokinetics after IV and oral dose, mice
# Type: in vivo, CD-1 mice
# conditionInfo: CD-1, plasma; mouse, female, single IV dose 5 mg; read-out: t1/2, z (converted)
readoutName: half-life (h)
Please give a number only; it is taken to be in h.

Tell us which half-life value is on record for COc1ccc(-c2c(-c3ccc(C#N)c(F)c3)nc(N3CCC(N)CC3)n(C)c2=O)cc1F
3.8

* * *

# test: in vivo
# conditionInfo: both, Beagle, dog, po, 0.125 mg/kg, combined Day 15 mean Cmax
readoutName: Cmax (ng/mL)
Please give a number only; it is taken to be in ng/mL.

Tell us which Cmax value is on record for COc1ccc(-c2c(-c3ccc(C#N)c(F)c3)nc(N3CCC(N)CC3)n(C)c2=O)cc1F [Compound A]
5.26
